B1: library; a variant is named by its letters at N, in order (parent)
chain: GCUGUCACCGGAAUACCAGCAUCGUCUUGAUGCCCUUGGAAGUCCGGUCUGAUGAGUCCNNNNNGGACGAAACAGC

Variants of: B1
EXPERIMENTAL DETAILS: FACS-Seq fitted mean relative fluorescence mCherry/BFP without ligand (log10 relative fluorescence); higher = higher reporter protein expression
EXPERIMENTAL SETUP: HEK293T, ligand present: no
I would appreciate it if you labelled entries label 1 when FACS-Seq fitted mean (log10) is 0.8 or higher, otherwise label 0.

MUTANT ID | GROUP LABEL
UACUU | label 0

Task: Quick check: does UAAAU have FACS-Seq fitted mean (log10) greater than or equal to 0.8?
Result: label 1

Task: Quick check: does UCGGU have FACS-Seq fitted mean (log10) greater than or equal to 0.8?
Result: label 0

Task: Quick check: does UUAUG have FACS-Seq fitted mean (log10) greater than or equal to 0.8?
Result: label 0

Task: Quick check: does CAACU have FACS-Seq fitted mean (log10) greater than or equal to 0.8?
Result: label 0

Task: Quick check: does UCCAA have FACS-Seq fitted mean (log10) greater than or equal to 0.8?
Result: label 1

Task: Quick check: does CGGGC have FACS-Seq fitted mean (log10) greater than or equal to 0.8?
Result: label 0
